FYI, the data here is from the supplement of paper PMC9170038.

System: MS2 coat protein
measurement-notes: apparent KD of MS2 coat protein; designed switch direction (-1 OFF switch, 1 ON switch): 1; higher = weaker reporter binding
measurement-context: Eterna round: R95; input ligand: none
measured-metric: apparent KD of MS2 coat protein (nM)
Write the number in nM without appending the unit.

Some entries whose results are on file:
# sequence-record, measured-metric, units, value
data = [
    ("CGUCCAGCCUGAGCUGGACAAAAGCAUGUACAUGAGGAUCACCCAUGUUCAUGUACAAGCUUUUUGCUCGUCUUAGG [salish99_208a_r3_074] (puzzle: Sensor for hsa-mir-208a)", "apparent KD of MS2 coat protein", "nM", 744),
    ("GGUUUAGUCAGGCACAAUUGCGCCUGAAAACAUGAGGAUCACCCAUGUUUGGGACAAGCUUUGCUCCUCGUCUUGCA [Enzati] (puzzle: Sensor for hsa-mir-208a)", "apparent KD of MS2 coat protein", "nM", 385),
    ("GACAAUCUAUCUGAGGAUAUCAUGAAGAAAACAUGAGGAUCACCCAUGUGCAGGAGAACUGCAAAUGAGAAGGCAGAUAGAUUGG [Mat - Same State 2 - Mod - D2] (puzzle: Same State 2)", "apparent KD of MS2 coat protein", "nM", 20.4),
]

Task item: // returns reported apparent KD of MS2 coat protein for input AACUUACGACCACAGGAUAUACUGAGGCGGACAUGAGGAUCACCCAUGUAGGCAAAAUAAGGGCAGUAGAAGGGUGGUCUUUACA [Usbiraxe] (puzzle: Same State 2)
Reply: 27.5

Task item: // returns reported apparent KD of MS2 coat protein for input UACAAUCUAUCUGAGGAUAUCAUGAAAAAAACAUGAGGAUCACCCAUGUGCAGGAAAACUGCAUAUGAGAAGGCAGAUAGAUUGG [salish99_SS2_r3_007] (puzzle: Same State 2)
Reply: 11700

Task item: // returns reported apparent KD of MS2 coat protein for input AUAAGUUCGAUGCUCGUCUCUCCGUACAAACAUGAGGAUCACCCAUGUGAUUGGACAAAAGCCCAAUCAGUAUGGCC [Cebeince] (puzzle: Sensor for hsa-mir-208a)
Reply: 40.9

Task item: // returns reported apparent KD of MS2 coat protein for input AUUAUACAUGAGGAUCACCCAUGUCAACAAAGUCGAGGAUAUGGGCAAAUAAAAUAAGAACCAGAAGGCGAAUAAU [salish99_ss1_r3_069] (puzzle: Same State 1)
Reply: 259

Task item: // returns reported apparent KD of MS2 coat protein for input UUAAGCCACGGGCAGGAUAUGUAUUAAAAUACAUGAGGAUCACCCAUGUGCAGGUGUAACACCUGGCAGAAGGGCCAAUCGCGGC [Soondi - 4] (puzzle: Same State 2)
Reply: 171

###

System: MS2 coat protein
measurement-notes: apparent KD of MS2 coat protein; higher = weaker reporter binding
measurement-context: Eterna round: R107; input ligand: tryptophan 2.4 mM
Condition met means recorded apparent KD of MS2 coat protein is 20 nM or above; Condition not met means it is below 20 nM.

# sequence-record, class-label
measured = [
    ("AGAGUUAGACAAAAGUCUAGCUCACCAGAAGGAGCGUCCGAAAGGACAGGUAGGUCGCUGGUGCACGAGGAUCACCCGUGUUCCU [ArgAS 21 #OpenEnded #AlternativeMS2]", "Condition met"),
    ("ACAUGAGGAUCACCCAUGUAAGGUCUUGAUACCAGACGAGAAGUAGUCCCUUGGCAGCAAAUACGUGAGGGUCACACAUGUGUAA [edsmullin]", "Condition met"),
    ("CAUACUUUAGUAUGACGUGUGGGCAGUGAUACCAGAUACGAAAGUAUCCCUUGGCAGCACAACAUGAGGAUCACCCAUGUAAUUA [Theophylline A 1]", "Condition met"),
    ("ACAUGAGGAUCACCCAUGUACAUAAGGGAAGGAGCGCGGUGAAACGCAGGUAGGUCGCCCAUAAUAACAAUAAAUAAAUUCAUGU [LeftA1]", "Condition not met"),
]

Task item: API: above_or_equal(metric=apparent KD of MS2 coat protein, cutoff=20 nM) for item AUAUUACAUGUUAUUAUACGGUAUACUGAUACCAGUGUUUCUAUUCACCCUUGGCAGCAGCAACAUGAGGAUCACCCAUGUAUUA [JR_SSTheophyA_Sub018]
Reply: Condition not met

Task item: API: above_or_equal(metric=apparent KD of MS2 coat protein, cutoff=20 nM) for item UUGACAUGAGGAUCACCCAUGUAAACUGAAGGAGCGUCGAAAAUGACAGGUAGGUCGCAGAAUAAUAAUGGUGAUCGUAAAUAUU [#12 Exclusion - Arginine A]
Reply: Condition met

Task item: API: above_or_equal(metric=apparent KD of MS2 coat protein, cutoff=20 nM) for item UGUAUGGGAACAUGAGGAUCACCCAUGUGGCGAGGACCGGUACGGCCGCCACUCGAGCAGCAAGCGUGUAUGACGCUGCUGCAUG [ss-trypA-0mod]
Reply: Condition met

Task item: API: above_or_equal(metric=apparent KD of MS2 coat protein, cutoff=20 nM) for item AGCCAUGGAAACAUGGCGGCGGCUUGAGCGCGAGGACCGGUACGGCCGCCACUCGGGCAACAUGAGGAUCACCCAUGUUCCUCAU [ETA NP+V+V2 #19]
Reply: Condition met

Task item: API: above_or_equal(metric=apparent KD of MS2 coat protein, cutoff=20 nM) for item ACACCGAAAGGUGCAUUUUCCUUUUCAGAUACCAGACUUUACGUUGUCCCUUGGCAGCUGUAUCACAUGAGGAUCACCCAUGUUG [JR_SSTheophyA_Sub012]
Reply: Condition not met

Task item: API: above_or_equal(metric=apparent KD of MS2 coat protein, cutoff=20 nM) for item GCUUCACAUGAGGAUCACCCAUGUCCGGAUACCAGCUCUCCAGACAGCCCUUGGCAGCCGAGCGCCCGAUUAUAUACCCUAGGAG [theeternabot_sameState_MS2_Theo_A_28]
Reply: Condition met

Task item: API: above_or_equal(metric=apparent KD of MS2 coat protein, cutoff=20 nM) for item UUGUUGUUUGGAAGGAGCGUGGAUGAGUUAGAACAUGAGGAUCACCCAUGUUGGAUGAUACCACAGGUAGGUCGCCGGGUGGUGG [11.Z]
Reply: Condition met

Task item: API: above_or_equal(metric=apparent KD of MS2 coat protein, cutoff=20 nM) for item AACAUACAAUUUUAGGUGGAUAUAAGGCGGCGAGGACCGGUACGGCCGCCACUCGCGUACAUGAGGAUCACCCAUGUCUGAAGCU [Same State - Tryptophan A (Freestyle 6)]
Reply: Condition met

Task item: API: above_or_equal(metric=apparent KD of MS2 coat protein, cutoff=20 nM) for item UCUGGGUGCGCAAGGACCUGGAGUUGCGAUACCAGCACGGUAACGUGCCCUUGGCAGCGCACAUGAGGAUCACCCAUGUGGUGUU [#1 Exclusion - Theophylline A Attempt #18 (HarryS)]
Reply: Condition met
